Cited source: PubChem BioAssay (NCI)

Test system: SNB-19 CNS
Test: NCI-60 one-dose screen, 48 h (100 = growth as untreated, 0 = no growth, -100 = all killed)
Settings: 10 µM unless noted
Protocol: Growth inhibition of the SNB-19 human tumor cell line is measured as a screen for anti-cancer activity. Cells are grown in 96 well plates and exposed to the test compound for 48 hours. Compounds are tested at a single concentration, which is 10^-5 M for most compounds. The reported endpoint is percent growth (GI% or GIPRCNT), where numbers from 0 - 100% represent growth inhibition, and numbers from -100% - 0 represent cell death. For example, a value of 40 represents 60% growth inhibition. […]
The panel holds about 83,000 compounds, 20% with a hit somewhere; the sample as a whole holds those more often.
Consider the following molecules and their measured growth readings.

molecule	growth (%)
COc1ccc2c(c1)sc1nc(-c3ccccc3)c(-c3cccc4ccccc34)n12	29.8
O=[N+]([O-])c1ccc(N=Nc2c(NNc3ccc([N+](=O)[O-])cn3)cc(S(=O)(=O)O)c3ccccc23)nc1	95.6
CCCCCCCCCCCC1=NC(C)(C)CN1C(C)C	86.7
COc1ccc(CC2c3cc(OC)c(OC)cc3CC[N+]2(C)CCC(=O)OCCCCCOC(=O)CC[N+]2(C)CCc3cc(OC)c(OC)cc3C2Cc2ccc(OC)c(OC)c2)cc1OC (stereo not given)	104
CCCNCCC(C)=O	97.1
